Molecular target: UniProtKB P11309
Assay: Pim enzyme assay (HTRF, 96-well), Pim-1
Format: biochemical
Conditions: full length recombinant Pim-1, biotinylated-BAD (S112) peptide, 10-point curve, 2 h RT, read-out: Pim-1 IC50 IP
pIC50: −log10 of the molar value.
readout.name: pIC50

Consider the following illustrative entries.
[[record]]
molecule = "CCN(c1ccccc1)c1ccc2cccc(-c3cc4c([nH]3)CCNC4=O)c2n1 [Example 14]"
test_value = 8.96

[[record]]
molecule = "O=C1NCCc2[nH]c(-c3cccc4ccc(Nc5ccc(Cl)cc5)nc34)cc21 [Example 15]"
test_value = 8.40

[[record]]
molecule = "O=C1NCCc2[nH]c(-c3cccc4ccc(NCc5ccccc5)nc34)cc21 [Example 21]"
test_value = 8.55


(1) O=C1NCCc2[nH]c(-c3cccc4ccc(N[C@@H]5CCCNC5)nc34)cc21 [Example 124]
(2) CCN(c1ccccc1)c1cnc2cccc(-c3cc4c([nH]3)CCNC4=O)c2n1 [Example 186]
(3) O=C1NCCc2[nH]c(-c3cccc4cnc(Oc5ccccc5)nc34)cc21 [Example 236, 2,2,2-trifluoroacetate]
(4) Cc1nc2cccc(-c3cc4c([nH]3)CCNC4=O)c2nc1NC1CCOCC1 [Example 127]
Exercise: Rank the 4 molecules: largest pIC50 first, smallest last. Reply: labels, ordered per the request.
Key: 2, 1, 4, 3

(I) O=C1NCCc2[nH]c(-c3c(F)ccc4ccc(Nc5cccnc5)nc34)cc21 [Example 228]
(II) O=C1NCCc2[nH]c(-c3cccc4ncc(Oc5ccccc5)nc34)cc21 [Example 177]
(III) COc1ccc(Cl)cc1-c1ccc2cccc(-c3cc4c([nH]3)CCNC4=O)c2n1 [Example 88]
Exercise: Rank the 3 molecules: largest pIC50 first, smallest last. Reply: labels, ordered per the request.
Key: I, II, III

----------
Target: Pim-1 (Homo sapiens (Human))
Sequence (P11309 whole entry): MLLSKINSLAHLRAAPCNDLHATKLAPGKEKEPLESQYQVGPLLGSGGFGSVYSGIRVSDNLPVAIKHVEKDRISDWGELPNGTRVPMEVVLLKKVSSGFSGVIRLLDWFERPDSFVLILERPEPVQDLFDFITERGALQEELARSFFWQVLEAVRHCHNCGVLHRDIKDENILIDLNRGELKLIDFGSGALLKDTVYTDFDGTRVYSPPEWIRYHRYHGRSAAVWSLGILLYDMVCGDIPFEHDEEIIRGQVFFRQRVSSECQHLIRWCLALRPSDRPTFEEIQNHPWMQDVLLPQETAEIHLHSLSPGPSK
Experiment: Pim-Mn enzyme assay (HTRF, 384-well), Pim-1
Type: biochemical
Details: Pim-1 enzyme 5 pM, ATP 1.5 μM, BAD (S112) 0.5 μM, HTRF, 22-point curve; read-out: Pim-1-Mn IC50 IP
readout.name: IC50 (nM)

Consider the following illustrative entries.
[[record]]
compound = "Cc1nc2ccc(F)c(-c3cc4c([nH]3)CCNC4=O)c2nc1NC(C)C [Example 373, 2,2,2-trifluoroacetate]"
readout_name = "IC50"
test_value = 1.8

[[record]]
compound = "Cc1nc2ccc(F)c(-c3cc(C(N)=O)c(C)[nH]3)c2nc1NC1(C)CC1"
readout_name = "IC50"
test_value = 2.91

[[record]]
compound = "CC(C)Nc1nc2c(-c3cc4c([nH]3)CCNC4=O)cccc2c(=O)n1-c1ccccn1"
readout_name = "IC50"
test_value = 10.9

[[record]]
compound = "Cc1nc2cccc(-c3cc4c([nH]3)C3(CC3)NC4=O)c2nc1NCC(F)F"
readout_name = "IC50"
test_value = 1.67

[[record]]
compound = "Cc1nc2cccc(-c3cc4c([nH]3)CCNC4=O)c2nc1NC1CCNCC1"
readout_name = "IC50"
test_value = 0.6

[[record]]
compound = "Cc1nc2cccc(-c3cc4c([nH]3)CCNC4=O)c2nc1-c1ccccc1"
readout_name = "IC50"
test_value = 82.4


(I) Cc1nc2cccc(-c3cc4n(c3)CCNC4=O)c2nc1NC1(C)CC1 [Example 100, 2,2,2-trifluoroacetate]
(II) Cc1nc2cccc(-c3cc4n(c3)CCNC4=O)c2nc1NC(C)(C)C
Exercise: Kindly compare I with II and tell me which has the lower IC50 figure. Answer format: the label of the selected item.
Key: I

The measurements presented in this section are drawn from patent US9394297B2.
